System: DLD-1 colon
Assay: NCI tumour cell line growth inhibition, 48 h
measured_parameter: TGI

{"molecule": "COc1ccc(/C=C/C(=O)c2c(-c3ccccc3)nn(C)c(=O)c2N2CCCCC2)cc1", "target_of_assay": "DLD-1 colon", "TGI": "82.6 µM"}
{"molecule": "CCOC(=O)CNC(=O)c1[nH]cnc1/N=N/N(C)C", "target_of_assay": "DLD-1 colon", "TGI": "> 100 µM"}
{"molecule": "O=C1C2C(C(=O)N1Cc1ccccc1)N(Cc1ccccc1)C(=O)N2Cc1ccccc1 (centres undefined)", "target_of_assay": "DLD-1 colon", "TGI": "> 100 µM"}

Challenge: Missing value: TGI, DLD-1 colon, entry "CCOC(=O)C[C@@]12CCCN[C@]1(C)CCc1ccccc12" . Fill in?
Response given: > 100 µM
